Experiment: Selectivity index, ratio of CTD50 for MDCK cells to EC50 for Influenza A virus (A/Puerto Rico/8/34(H1N1))
Format: toxicity, cell-based
Conditions: dog, read-out: Selectivity Index
Would you please tag the item rule met when its selectivity ratio is 6 or above, and rule not met when it is below?

1) CCOC(=O)Cc1nnn(C23CC4CC(CC(C4)C2)C3)n1 = rule not met
2) O=S(=O)([O-])O.c1ccc(-n2n[n+](C34CC5CC(CC(C5)C3)C4)nc2SC23CC4CC(CC(C4)C2)C3)cc1 = rule not met
3) Cc1nnn(C23CC4CC(CC(C4)C2)C3)n1 = rule met
4) OC12CC3CC(C1)CC(n1nn[nH]c1=S)(C3)C2 = rule met
5) Cc1nnn(C23CC4CC(CC(N)(C4)C2)C3)n1.Cl = rule met

Next, consider the following molecule.
Check the entry Cc1ncn(C23CC4CC(CC(C(C)N)(C4)C2)C3)n1.Cl.Cl (configuration not stated) : does selectivity ratio equal or exceed 6?
rule met
